Where do the numbers come from? From patent US11535611B2.

target: PDE1A (Homo sapiens (Human), UniProt P54750); test: PDE1 inhibition assay, PDE1A; format: biochemical; conditions: @ 10 μM compound
Sequence (P54750 whole entry): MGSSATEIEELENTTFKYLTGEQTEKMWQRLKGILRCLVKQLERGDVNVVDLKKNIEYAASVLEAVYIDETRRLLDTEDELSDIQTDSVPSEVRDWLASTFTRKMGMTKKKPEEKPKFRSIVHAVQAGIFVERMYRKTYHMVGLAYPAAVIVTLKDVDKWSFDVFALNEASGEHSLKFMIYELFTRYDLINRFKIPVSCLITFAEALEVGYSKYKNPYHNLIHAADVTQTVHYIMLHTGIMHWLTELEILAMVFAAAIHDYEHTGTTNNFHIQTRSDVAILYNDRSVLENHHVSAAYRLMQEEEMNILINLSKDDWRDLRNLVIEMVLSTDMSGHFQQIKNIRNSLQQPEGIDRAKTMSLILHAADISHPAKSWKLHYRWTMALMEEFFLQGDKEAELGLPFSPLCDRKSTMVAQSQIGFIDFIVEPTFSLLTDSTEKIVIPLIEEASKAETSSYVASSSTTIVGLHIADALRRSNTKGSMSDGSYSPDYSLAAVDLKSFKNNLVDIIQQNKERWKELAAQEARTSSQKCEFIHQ
Use inhibition at 10 µM to assign classes; range list: c1 = under 50%, c2 = from 50% up to 70%, c3 = 70% and over

Use these answered entries as a reference point.
• CC(C)n1ncc2nc(-c3cncnc3)cc(N[C@@H]3CCOC3)c21 [Example 26] = c2
• COc1cccc(Cc2cc(N[C@@H]3CCOC3)c3c(cnn3C(C)C)n2)c1 [Example 37] = c2
• Cc1cccnc1-c1cc(N[C@@H]2CCOC2)c2c(cnn2C(C)C)n1 [Example 39] = c2
• COc1nc(C)ccc1-c1cc(N[C@@H]2CCOC2)c2c(cnn2C(C)C)n1 [Example 29] = c1

Class label required: COc1cccnc1-c1cc(N[C@@H]2CCOC2)c2c(cnn2C(C)C)n1 [Example 40]
c3

Check COc1ncc(C#N)cc1-c1cc(N[C@@H]2CCOC2)c2c(cnn2C(C)C)n1 [Example 54] too.
c2

* * *

# inhibition at 10 µM per entry
target: UniProt:Q14123; assay: PDE1 inhibition assay, PDE1C; assay type: biochemical; settings: @ 10 μM compound; read-out: PDE1 C, % inhibition @ 10 μM
// return numeric value only (unit: %, not printed)

* COCc1ncccc1-c1cc(N[C@@H]2CCOC2)c2c(cnn2C(C)C)n1 [Example 58] | 31
* CCc1ncccc1-c1cc(N[C@@H]2CCOC2)c2c(cnn2C(C)C)n1 [Example 56] | 59
* CC(C)n1ncc2nc(-c3cncnc3)cc(N[C@@H]3CCOC3)c21 [Example 26] | 70
* COc1cccnc1-c1cc(N[C@@H]2CCOC2)c2c(cnn2C(C)C)n1 [Example 40] | 26
* CCOc1ccccc1-c1cc(N[C@@H]2CCOC2)c2c(cnn2C(C)C)n1 [Example 53] | 61

What does the record list as inhibition at 10 µM for COc1nc(C)ccc1-c1cc(N[C@@H]2CCOC2)c2c(cnn2C(C)C)n1 [Example 29] ?
68

Check CC(C)n1ncc2nc(-c3cccnc3)cc(N[C@@H]3CCOC3)c21 [Example 25] too.
65

* * *

molecular target: PDE1C (Homo sapiens (Human), UniProt Q14123)
Sequence (Q14123 whole entry): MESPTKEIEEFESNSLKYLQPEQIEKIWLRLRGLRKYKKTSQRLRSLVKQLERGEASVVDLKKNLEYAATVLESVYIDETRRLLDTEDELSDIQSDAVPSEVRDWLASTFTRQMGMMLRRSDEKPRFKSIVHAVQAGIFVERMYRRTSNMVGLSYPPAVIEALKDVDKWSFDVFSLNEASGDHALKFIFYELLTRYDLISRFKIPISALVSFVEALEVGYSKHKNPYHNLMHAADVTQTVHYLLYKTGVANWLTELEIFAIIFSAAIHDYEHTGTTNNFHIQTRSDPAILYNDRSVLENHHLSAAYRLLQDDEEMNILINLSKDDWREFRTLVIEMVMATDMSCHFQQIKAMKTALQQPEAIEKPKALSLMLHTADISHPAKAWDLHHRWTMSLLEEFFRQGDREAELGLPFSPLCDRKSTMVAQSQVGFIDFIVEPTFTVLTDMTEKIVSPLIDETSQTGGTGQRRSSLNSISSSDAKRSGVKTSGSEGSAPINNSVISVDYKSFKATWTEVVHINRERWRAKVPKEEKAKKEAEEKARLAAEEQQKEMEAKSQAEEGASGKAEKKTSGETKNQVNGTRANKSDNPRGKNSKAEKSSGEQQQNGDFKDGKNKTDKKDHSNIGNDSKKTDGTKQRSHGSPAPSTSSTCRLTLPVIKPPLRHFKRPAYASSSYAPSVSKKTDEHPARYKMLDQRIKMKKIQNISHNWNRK
measuredEndpoint: pIC50
Remember the convention: pIC50 equals -log10 of concentration in molar.

Reference set (2 entries):
- CCOc1ncccc1-c1cc(N2CCCC2)c2c(cnn2CC)n1: 5.74
- CCOc1ncccc1-c1cc(NC2CCOCC2)c2c(cnn2C(C)C)n1: 5.57

API: value(readout= pIC50, system= PDE1C (Homo sapiens (Human), UniProt Q14123), query= CCOc1ncccc1-c1ccn2c(C3CC3)nc(C)c2n1 )
5.93

* * *

target: PDE1A (Homo sapiens (Human), UniProt P54750); assay: PDE1 inhibition assay, PDE1A; assay type: biochemical; conditions: @ 10 μM compound
measuredEndpoint: inhibition at 10 µM (%)
// return numeric value only (unit: %, not printed)

Reference set (2 entries):
- CCc1ncccc1-c1cc(N[C@@H]2CCOC2)c2c(cnn2C(C)C)n1: 51
- CCOc1ncc(C#N)cc1-c1cc(N[C@@H]2CCOC2)c2c(cnn2C(C)C)n1: 69

Below: the item to evaluate.
What does the record list as inhibition at 10 µM for CCOc1ncccc1-c1cc(NC2CCOCC2)c2c(cnn2C(C)C)n1 ?
71
